Catalogue of kon readings, one per entry.
- targetOrSystem: T1, recombinant human HER2 extracellular domain protein (human, UniProt P04626 23-652)
- T1 construct: range 23-652; Range is printed for the immunogen/panning protein; also called ErbB2; recombinant HER2 protein
- assayName: BLI, Protein A capture
State just the number; it will be interpreted in M⁻¹ s⁻¹.

2126-Hu-H27 (antibody, IgG1, V domains shown, IgG1/Cκ) VH: QVQLVQSGSELKKPGASVKVSCKASGYTFTDYSMHWVRQAPGQGLEWMGWINTGTGEPTYADDFKGRFVFSLDTSVSTAYLQISSLKAEDTAVYFCVRVGRYDYAMDYWGQGTTVTVSS VL: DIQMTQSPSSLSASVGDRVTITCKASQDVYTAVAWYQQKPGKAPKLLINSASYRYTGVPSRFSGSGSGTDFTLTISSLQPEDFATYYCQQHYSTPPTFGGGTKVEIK ... 97900

Let us move to another entry and its kon.
(Q) kon for 2126-Hu-H51 (antibody, IgG1, name in Kabat numbering, V domains shown, IgG1/Cκ) VH: QVQLVQSGSELKKPGASVKVSCKASGYTFTDYSMHWVRQAPGQGLEWMGWINTETGEPTYADDFKGRFVFSLDTSVSTAYLQISSLKAEDTAVYFCVRVGRFDYAMDYWGQGTTVTVSS VL: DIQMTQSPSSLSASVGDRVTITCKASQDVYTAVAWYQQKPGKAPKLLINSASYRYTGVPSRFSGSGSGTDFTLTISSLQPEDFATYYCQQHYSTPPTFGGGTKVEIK ?
(A) 103000
